protocol-details: Tmax in Sprague-Dawley rat brain at 50 mg/kg, po
Assay type: ADME, organism-based
value-type: Tmax (h)
Answer with a number only, understood to be in h.

Given the entry COc1cc(OC)c(OC)cc1/C=C/COC(=O)/C=C/c1c(OC)cc(OC)c(OC)c1OC , report its measured Tmax.
1

---

The molecules listed here are annotated with their selectivity ratio at 0.5 h.
protocol-details: Protective index, ratio of TD50 for neurotoxicity against ip dosed Kunming mouse assessed as time remained in rod measured at 0.5 hrs by rotarod test to ED50 for […] activity in ip dosed Kunming mouse assessed as reduction in formalin-induced paw licking administered 0.5 hrs before formalin stimulation
Assay type: toxicity, organism-based
condition-info: in vivo, read-out: PI

Some entries whose results are on file:
> print(dat)
                                   molecule  result
1  COc1cc(OC)c(OC)cc1/C=C/COC(=O)/C=C/c1ccc(OC)c(OC)c1OC  > 12.8
2  COc1ccccc1/C=C/C(=O)OC/C=C/c1cc(OC)c(OC)cc1OC   > 8.9
3  COc1cc(OC)c(OC)cc1/C=C/COC(=O)/C=C/c1ccc(Br)cc1    10.1
4  COc1cc(OC)c(/C=C/C(=O)OC/C=C/c2cc(OC)c(OC)cc2OC)c(OC)c1  > 10.1

Look at this molecule and give its reported selectivity ratio at 0.5 h. COC[C@@H](NC(C)=O)C(=O)NCc1ccccc1 [LACOSAMIDE]
2.2

---

protocol-details: Protective index, ratio of TD50 for neurotoxicity against ip dosed Kunming mouse assessed as time remained in rod measured at 0.5 hrs by rotarod test to ED50 for […] activity in ip dosed Kunming mouse assessed as reduction in formalin-induced paw licking administered 0.5 hrs before formalin stimulation
Format: toxicity, organism-based
condition-info: in vivo, read-out: PI
value-type: selectivity ratio at 0.5 h
A bare number is all that is needed in reply.

Endpoint output: selectivity ratio at 0.5 h of COc1cc(OC)c(OC)cc1/C=C/COC(=O)/C=C/c1cc(OC)c(OC)c(OC)c1 . Value?
11.6

Moving on to COc1cc(OC)c(OC)cc1/C=C/COC(=O)/C=C/c1c(OC)c(OC)cc(OC)c1OC
19.7

Now consider COc1cc(OC)c(OC)cc1/C=C/COC(=O)/C=C/c1cc(OC)c(OC)c(OC)c1OC .
23.7

Entry to check: COc1cc(OC)c(OC)cc1/C=C/COC(=O)/C=C/c1c(OC)cc(OC)c(OC)c1OC
21.6

Try this compound next: COc1cc(OC)c(OC)cc1/C=C/COC(=O)/C=C/c1c(OC)ccc(OC)c1OC
12.5

---

Species on record: Homo sapiens
protocol-details: Inhibition of human LDH1 at 0.5 mM using sodium pyruvate as substrate measured for 60 sec for every 5 mins by LC/MS-MS analysis
As shown below, each of these molecules has a reported inhibition value.

Look over these answered cases.
> print(dat)
                  compound.structure.string  result
1  COc1cc(OC)c(OC)cc1/C=C/COC(=O)/C=C/c1c(OC)cc(OC)c(OC)c1OC     21%
2  COc1cc(OC)c(OC)cc1/C=C/COC(=O)/C=C/c1ccc(F)cc1      5%
3  COc1ccccc1/C=C/C(=O)OC/C=C/c1cc(OC)c(OC)cc1OC      2%

So what's the measured inhibition for this one? COc1cc(OC)c(OC)cc1/C=C/COC(=O)/C=C/c1cc(OC)c(OC)c(OC)c1OC
18%

Next entry: COc1cc(OC)c(OC)cc1/C=C/COC(=O)/C=C/c1cc(OC)c(OC)c(OC)c1
10%

---

protocol-details: Protective index, ratio of TD50 for neurotoxicity against ip dosed Kunming mouse assessed as time remained in rod measured at 0.5 hrs by rotarod test to ED50 for anticonvulsant activity in ip dosed Kunming mouse assessed as reduction in ScPTZ-induced seizure administered 0.5 hrs before ScPTZ stimulation
Type: toxicity, organism-based
condition-info: in vivo, read-out: PI
value-type: selectivity ratio at 0.5 h
Lab note: record the figure alone, no unit after it.

Some entries whose results are on file:
> print(dat)
                  compound.structure.string                  value.type  quantitative.readout
1  COc1cc(OC)c(OC)cc1/C=C/COC(=O)/C=C/c1cc(OC)c(OC)c(OC)c1  selectivity ratio at 0.5 h                   4.9
2  COc1cc(OC)c(OC)cc1/C=C/COC(=O)/C=C/c1c(OC)ccc(OC)c1OC  selectivity ratio at 0.5 h                  4.72
3  COc1cc(OC)c(OC)cc1/C=C/COC(=O)/C=C/c1ccccc1C(F)(F)F  selectivity ratio at 0.5 h                     5
4  COc1cc(OC)c(OC)cc1/C=C/COC(=O)/C=C/c1c(OC)c(OC)cc(OC)c1OC  selectivity ratio at 0.5 h                   6.7

Now for a further compound.
Given COc1cc(OC)c(OC)cc1/C=C/COC(=O)/C=C/c1cc(OC)c(OC)cc1OC , state its recorded selectivity ratio at 0.5 h.
5

---

As shown below, each of these compounds has a reported pKi value.
protocol-details: Noncompetitive inhibition of human LDH1 at 0.5 mM using sodium pyruvate as substrate by UV-VIS spectrophotometry method based Lineweaver-Burk plot analysis
Quick note: pKi values are minus log10 of concentrations in mol/L.

Examples with answers:
> print(dat)
                  compound.structure.string  quantitative.readout
1  COc1cc(OC)c(OC)cc1/C=C/COC(=O)/C=C/c1cc(OC)c(OC)c(OC)c1OC                  5.75
2  COc1cc(OC)c(OC)cc1/C=C/COC(=O)/C=C/c1c(OC)ccc(OC)c1OC                  4.92

Proceeding to the next compound to report its pKi.
If you can, please state the reported pKi value of COc1cc(OC)c(OC)cc1/C=C/COC(=O)/C=C/c1cc(OC)c(OC)c(OC)c1 .
4.85

---

protocol-details: AUC in Sprague-Dawley rat at 50 mg/kg, po measured upto 480 mins by LC-MS/MS analysis
Assay type: ADME, organism-based
Set-up: time < 8 hr, dose 50 mg/kg, route oral
condition-info: in vivo
value-type: AUC at 8 h (ng·h/mL)
Provide only the numeric value, understood in ng·h/mL.

> print(dat)
                  compound.structure.string  value.type  unit.of.measurement  quantitative.readout
1  COc1cc(OC)c(OC)cc1/C=C/COC(=O)/C=C/c1cc(OC)c(OC)c(OC)c1OC  AUC at 8 h              ng·h/mL                  2310

Now for a further molecule.
Please look up its AUC at 8 h: COc1cc(OC)c(OC)cc1/C=C/COC(=O)/C=C/c1c(OC)cc(OC)c(OC)c1OC
2610

---

# pEC50 annotations
experimental-system: GABA-A receptor; alpha-1/beta-2/gamma-2 (Homo sapiens, UniProt P14867+P18507+P47870)
Sequence (P14867 whole entry): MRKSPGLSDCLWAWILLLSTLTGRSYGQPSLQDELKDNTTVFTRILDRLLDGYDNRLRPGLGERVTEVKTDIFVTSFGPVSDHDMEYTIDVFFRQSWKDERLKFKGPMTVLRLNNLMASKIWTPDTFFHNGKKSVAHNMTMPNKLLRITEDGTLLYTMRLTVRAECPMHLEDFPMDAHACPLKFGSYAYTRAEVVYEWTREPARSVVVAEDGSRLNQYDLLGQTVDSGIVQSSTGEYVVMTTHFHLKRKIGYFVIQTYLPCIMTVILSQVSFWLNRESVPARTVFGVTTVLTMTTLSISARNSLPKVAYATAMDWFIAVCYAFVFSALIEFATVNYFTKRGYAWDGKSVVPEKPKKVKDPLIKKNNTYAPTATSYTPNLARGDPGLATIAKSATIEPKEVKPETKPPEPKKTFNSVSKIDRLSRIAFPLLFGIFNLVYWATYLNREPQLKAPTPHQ
Sequence (P47870 whole entry): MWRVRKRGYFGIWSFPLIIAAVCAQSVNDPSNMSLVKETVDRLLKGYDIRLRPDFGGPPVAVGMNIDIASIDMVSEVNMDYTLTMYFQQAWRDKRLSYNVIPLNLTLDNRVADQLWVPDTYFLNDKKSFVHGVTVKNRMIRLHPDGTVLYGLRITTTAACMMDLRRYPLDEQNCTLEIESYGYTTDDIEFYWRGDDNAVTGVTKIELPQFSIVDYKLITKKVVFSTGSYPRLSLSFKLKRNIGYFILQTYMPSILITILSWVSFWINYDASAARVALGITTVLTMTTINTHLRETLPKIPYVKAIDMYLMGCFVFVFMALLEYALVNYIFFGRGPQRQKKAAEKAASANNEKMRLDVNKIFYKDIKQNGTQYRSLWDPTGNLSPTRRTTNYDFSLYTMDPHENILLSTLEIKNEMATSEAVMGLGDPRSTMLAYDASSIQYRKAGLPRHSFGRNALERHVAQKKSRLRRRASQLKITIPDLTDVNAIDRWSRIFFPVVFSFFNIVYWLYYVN
Sequence (P18507 whole entry): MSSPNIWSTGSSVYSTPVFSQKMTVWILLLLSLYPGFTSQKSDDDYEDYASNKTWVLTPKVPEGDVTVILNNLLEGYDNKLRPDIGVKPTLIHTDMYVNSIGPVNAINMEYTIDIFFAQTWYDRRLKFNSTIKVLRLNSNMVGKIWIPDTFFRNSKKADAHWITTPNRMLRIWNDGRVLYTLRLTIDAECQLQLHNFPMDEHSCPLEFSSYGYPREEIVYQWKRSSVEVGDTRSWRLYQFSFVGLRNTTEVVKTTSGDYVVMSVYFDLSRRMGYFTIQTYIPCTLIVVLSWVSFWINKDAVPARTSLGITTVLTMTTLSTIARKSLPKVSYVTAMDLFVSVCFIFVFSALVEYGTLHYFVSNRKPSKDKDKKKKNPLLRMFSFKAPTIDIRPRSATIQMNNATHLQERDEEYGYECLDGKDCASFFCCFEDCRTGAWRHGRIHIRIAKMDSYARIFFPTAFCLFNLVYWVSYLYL
protocol-details: Agonist activity at GABA alpha1beta2gamma2 receptor in human HEK293T at -50 mV holding potential by whole cell voltage clamp assay
To interpret pEC50, take it as minus log10 of a concentration measured in moles per litre.

> print(dat)
                                   compound                       experimental.system  quantitative.readout
1  COc1cc(OC)c(OC)cc1/C=C/COC(=O)/C=C/c1c(OC)cc(OC)c(OC)c1OC  GABA-A receptor; alpha-1/beta-2/gamma-2 (Homo sapiens, UniProt P14867+P18507+P47870)                  4.33

Request the reported pEC50 associated with CC(C)(C)C(O)/C=C/c1ccc2c(c1)OCO2 (configuration not stated) [STIRIPENTOL]
4.34

---

protocol-details: Protective index, ratio of TD50 for neurotoxicity against ip dosed Kunming mouse assessed as time remained in rod measured at 0.5 hrs by rotarod test to ED50 for anticonvulsant activity in ip dosed Kunming mouse assessed as MES-induced hind limb extension administered 0.5 hrs
Assay type: toxicity, organism-based
condition-info: in vivo, read-out: PI
value-type: selectivity ratio at 0.5 h

> print(dat)
                  compound.structure.string  result
1  COc1cc(OC)c(OC)cc1/C=C/COC(=O)/C=C/c1ccc(OC)c(OC)c1OC  > 29.9
2  COc1ccccc1/C=C/C(=O)OC/C=C/c1cc(OC)c(OC)cc1OC  > 25.6
3  COc1cc(OC)c(OC)cc1/C=C/COC(=O)/C=C/c1ccc(OC)c(OC)c1  > 17.2
4  COc1cc(OC)c(OC)cc1/C=C/COC(=O)/C=C/c1cccc(Br)c1  > 13.2
5  COc1cc(OC)c(OC)cc1/C=C/COC(=O)/C=C/c1ccccc1Cl    > 17
6  COc1cccc(/C=C/C(=O)OC/C=C/c2cc(OC)c(OC)cc2OC)c1  > 13.7
7  COc1cc(OC)c(OC)cc1/C=C/COC(=O)/C=C/c1c(OC)cc(OC)c(OC)c1OC    27.7
8  COc1cc(OC)c(OC)cc1/C=C/COC(=O)/C=C/c1cc(OC)c(OC)c(OC)c1    29.8
9  COc1cc(OC)c(OC)cc1/C=C/COC(=O)/C=C/c1c(OC)c(OC)cc(OC)c1OC  > 17.3

Need selectivity ratio at 0.5 h, item COc1cc(OC)c(OC)cc1/C=C/COC(=O)/C=C/c1c(OC)ccc(OC)c1OC
> 18.7
